Biological target: T1, FXR-DBD (human, UniProt Q96RI1-1 117-217)
T1 sequence: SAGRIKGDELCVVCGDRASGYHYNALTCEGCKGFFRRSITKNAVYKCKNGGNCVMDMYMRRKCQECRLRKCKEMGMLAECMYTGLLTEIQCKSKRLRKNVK
Assay: fluorescence polarization
Measurement label: Kd (nM)
Please give a number only; it is taken to be in nM.

Req: Reported Kd for IR1 (FPA) (dsDNA) DNA 1: CCGAGGTCAATGACCTCG DNA 2: CGAGGTCATTGACCTCGG : what is it?
Resp: 95
